Give Antimicrobial activity MIC for every item shown.
# Test system: MRSA (clin. isolate Motol)
# Assay type: cell-based, Staphylococcus aureus
# Details: 37° C for 20 h
Square brackets hold non-standard residues; d marks the D form. Peptide text beside a SMILES is read from it. Met(O) = CS(=O)CC[C@H](N)C(=O)O; βAla = NCCC(=O)O

[
  {
    "Compound": "CC[C@H](C)[C@H](NC(=O)[C@H](CCCCN)NC(=O)[C@H](CCCCN)NC(=O)[C@H](CC(C)C)NC(=O)[C@H](CC(C)C)NC(=O)[C@H](CCCCN)NC(=O)[C@H](CC[S+](C)[O-])NC(=O)[C@H](Cc1c[nH]c2ccccc12)NC(=O)[C@H](CCCCN)NC(=O)CN)C(=O)N[C@@H](CC(C)C)C(=O)N[C@@H](CCCCN)C(N)=O (stereo partly shown) [XII] (H-GKW[Met(O)]KLLKKILK-NH2)",
    "Readout Kind": "Antimicrobial activity MIC",
    "Observed": "25,3 µmol.l^-1"
  },
  {
    "Compound": "CC[C@H](C)[C@H](NC(=O)[C@H](CCCCN)NC(=O)[C@H](CCCCN)NC(=O)[C@H](CC(C)C)NC(=O)[C@H](CC(C)C)NC(=O)[C@H](CCCCN)NC(=O)[C@H](CCSC)NC(=O)[C@H](Cc1c[nH]c2ccccc12)NC(=O)[C@H](CCCCN)NC(=O)CN)C(=O)N[C@@H](CC(C)C)C(=O)N[C@@H](CCCCN)C(N)=O [III]",
    "Readout Kind": "Antimicrobial activity MIC",
    "Observed": "5,7 µmol.l^-1"
  }
]

Quick batch: Antimicrobial activity MIC for everything below.
1. CC[C@H](C)[C@H](NC(=O)[C@H](CCCCN)NC(=O)[C@H](CCCCN)NC(=O)[C@H](CC(C)C)NC(=O)[C@H](CCSC)NC(=O)[C@H](CCCCN)NC(=O)[C@H](CCSC)NC(=O)[C@H](Cc1c[nH]c2ccccc12)NC(=O)[C@H](CCCCN)NC(=O)CN)C(=O)N[C@@H](CC(C)C)C(=O)N[C@@H](CCCCN)C(N)=O [XI] (H-GKWMKMLKKILK-NH2)
2. CC[C@H](C)[C@H](NC(=O)[C@H](CCCCN)NC(=O)[C@H](CCCCN)NC(=O)[C@H](CC(C)C)NC(=O)[C@H](CC(C)C)NC(=O)[C@H](CCCCN)NC(=O)[C@H](CCSC)NC(=O)[C@H](Cc1c[nH]c2ccccc12)NC(=O)[C@H](CCCCN)NC(=O)CCN)C(=O)N[C@@H](CC(C)C)C(=O)N[C@@H](CCCCN)C(N)=O [Peptide V] (H-[βAla]KWMKLLKKILK-NH2)

Out:
["20,0 µmol.l^-1", "10,0 µmol.l^-1"]
